target: T1, RSV F ectodomain stabilized in the postfusion conformation (F ΔFP), subtype A (respiratory syncytial virus subtype A, UniProt P03420 26-109; P03420 147-524); assay: BLI (Octet), IgG on AHQ sensor, 100 nM antigen
T1 construct: extracellular domain; Trimer; also called Postfusion subtype A
endpoint-label: Kd (nM)
Kindly answer with a numeric value in nM, unit omitted.

Examples with their reported Kd follow.
ADI-19000 (antibody, V domains shown, full-length IgG; also called Antibody Number 348) VH: EVQLVESGAEVKKPGASVKVSCKASGYTFTTYDINWVRQATGRGLEWMGWMTPDSGSTGYPQNFQGRVTMTRNTSISTAYMELSNLRSEDTAVYYCVQMDHCRSTSCSEGNWFDTWGQGTLVTVSS VL: QPGLTQPPSVSAAPRQRVTISCSGSSSNIGTNAVNWYQQLPGKAPKLLIYSDNLMPSGVSARFSGSKSGTSASLAISGLQSEDEADYYCAAWDDSLNVWVFGGGTKLTVL : 0.175
ADI-18995 (antibody, V domains shown, full-length IgG; also called Antibody Number 343) VH: EVQLVESGPGLVKPSETLSLSCIVSGGSITSGDYYWSWLRQSPGKGLEWIGYIYHSGATFYTPSLRSRVTISTDTSKNQFSLRLSSVTAADTAVYYCASGPVGMATSNWFDPWGQGTLVTVSS VL: SYELTQPPSVSVAPGKTATITCGGDIIRTNSVNWYQQKPGQAPLLLIYYDSDRPSGIPERFSASNSGNTATLTISRVEAGDEADYYCQVWDSGTDYHVVFGGGTKLTVQ : 12.3

Field: next binder
Exercise: Entry ADI-18998 (antibody, V domains shown, full-length IgG; also called Antibody Number 346) VH: EVQLLESGPGLVKPSQTLSLTCTVSGGSINSIDYYWSWIRQPPGKGLEWIGYIYHSGSTHYRPSLKSRVTISLDKAKNEFSLSLTSVTAADTAVYFCASGPVGMATSNWFDPWGQGTLVTVSS VL: QPVLTQPPSVSVTPGETARLPCEGDIVVTNSVHWYQQKPGQAPVLVVYYDSDRASGIPERFSGSNSGNTATLSISRVEAGDEADYYCQVWDSSTDHHVVFGGGTKLTVL has what Kd?
Solution: 12.4
